Origin of measurements: patent US9932354B2

tested on: Amyloid-β peptide release (Aβ42), HEK cells overexpressing APP (HEK-APP); assay: Amyloid-β peptide release (Aβ42) assay, AlphaLISA on supernatant of HEK-APP cells; assay type: cell-based; settings: Homo sapiens, HEK293, 24 h incubation with compound, read-out: Ab42 IC50 Ranges
Can you tell me IC50 for the items I'm about to list?

INSERT INTO measurements (molecule, assay_system, observable, result) VALUES
  ('CCC(C(=O)Nc1ccc(-c2nn3c(C)ncc3o2)nc1)c1ccccc1 (stereo not drawn)', 'Amyloid-β peptide release (Aβ42), HEK cells overexpressing APP (HEK-APP)', 'IC50', '1 to 2.2 µM'),
  ('Cc1ncc2oc(-c3ccc(Nc4nc5c(s4)CCCC5c4ccc(F)cc4)cc3)nn12 (stereo not drawn)', 'Amyloid-β peptide release (Aβ42), HEK cells overexpressing APP (HEK-APP)', 'IC50', '1 to 2.2 µM'),
  ('CCOc1ccccc1C(C)NC(=O)c1nn2c(C)ncc2s1 (stereo not drawn)', 'Amyloid-β peptide release (Aβ42), HEK cells overexpressing APP (HEK-APP)', 'IC50', '0.5 to 1 µM');

Okay, here is my list. What is IC50 for each of these?
1. Cc1ncc2sc(C(=O)N(Cc3ccccc3)CC(C)C)nn12
2. Cc1ncc2oc(-c3ccc(NC(=O)Cc4ccc(Cl)cc4Cl)cn3)nn12
3. Cc1nc(C)n2nc(-c3ccc(C(=O)NCc4cccc5ccccc45)cc3)oc12
4. Cc1ncc2oc(-c3ccc(NC(=O)Cc4ccc(Cl)c(Cl)c4)cn3)nn12
5. Cc1ncc2oc(-c3ccc(NC(=O)Cc4cccc(Cl)c4)cc3)nn12
6. COc1cc(NC(=O)Cc2cc(C)ccc2C)ccc1-c1nn2c(C)ncc2s1

0.1 to 0.5 µM
1 to 2.2 µM
0.5 to 1 µM
0.5 to 1 µM
0.5 to 1 µM
0.5 to 1 µM

* * *

system: Amyloid-β peptide release (Aβ42), HEK cells overexpressing APP (HEK-APP); test: Amyloid-β peptide release (Aβ42) assay, AlphaLISA on supernatant of HEK-APP cells; type: cell-based; settings: Homo sapiens, HEK293, 24 h incubation with compound, read-out: Ab42 IC50 Ranges
pIC50: −log10 of the molar value.
Can you tell me pIC50 for the items I'm about to list?

Okay, here is my list. What is pIC50 for each of these?
1. Cc1ncc2oc(-c3ccc(NC(=O)Cc4cccc(Oc5ccccc5)c4)cn3)nn12
2. Cc1ncc2oc(-c3ccc(NC(=O)Cc4ccc(Cl)cc4)cc3)nn12
3. Cc1ncc2oc(-c3ccc(Nc4nc5c(s4)CCCC5c4ccccc4)cc3)nn12 (stereo not drawn)

1. 6.00 to 6.30
2. 6.00 to 6.30
3. 5.66 to 6.00

* * *

Can you tell me IC50 for the items I'm about to list?
tested on: Amyloid-β peptide release (Aβ42), HEK cells overexpressing APP (HEK-APP); experiment: Amyloid-β peptide release (Aβ42) assay, AlphaLISA on supernatant of HEK-APP cells; format: cell-based; settings: Homo sapiens, HEK293, 24 h incubation with compound, read-out: Ab42 IC50 Ranges

Okay, here is my list. What is IC50 for each of these?
1. Cc1ncc2sc(C(=O)N3CCCC3c3ccccc3)nn12 (stereo not shown) [Example 93]
2. Cc1ncc2oc(-c3ccc(Nc4nc5n(n4)CCCC5c4ccc(F)cc4)cc3)nn12 (stereo not shown) [Example 24]
3. CCOc1ccc(CC(=O)Nc2ccc(-c3nn4c(C)ncc4o3)c(OC)c2)cc1 [Example 35]
4. Cc1ncc2sc(C(=O)N3CCCC3c3ccc(F)cc3)nn12 (stereo not shown) [Example 124]
5. Cc1ncc2sc(C(=O)N3CCCC3c3ccccc3Cl)nn12 (stereo not shown) [Example 122]
6. Cc1ncc2oc(-c3ccc(NC(=O)Cc4ccc(C#N)cc4)cc3)nn12 [Example 49]
7. Cc1ncc2oc(-c3ccc(NC(=O)Cc4csc5ccc(Cl)cc45)cc3)nn12 [Example 73]

1: 100 to 500 nM; 2: 500 to 1000 nM; 3: 500 to 1000 nM; 4: 100 to 500 nM; 5: 1000 to 2200 nM; 6: 1000 to 2200 nM; 7: 1000 to 2200 nM

Okay, here is my list. What is IC50 for each of these?
1. CCOc1ccccc1CNC(=O)c1nn2c(C)ncc2s1 [Example 96]
2. Cc1ncc2oc(-c3ccc(NC(=O)Cc4cc(F)cc(F)c4F)cc3)nn12 [Example 61]
3. COc1c(F)ccc(CC(=O)Nc2ccc(-c3nn4c(C)ncc4o3)cc2)c1F [Example 68]
4. Cc1ncc2sc(C(=O)N3CCCC3c3ccc(C(F)(F)F)cc3)nn12 (stereo not shown) [Example 112]
5. Cc1cc(-c2nn3c(C)ncc3o2)ccc1NC(=O)Cc1cccc(Cl)c1 [Example 43]
6. Cc1ncc2sc(C(=O)N3CCCC3c3ccc(Br)cc3)nn12 (stereo not shown) [Example 110]
7. Cc1ncc2sc(-c3ccc(NC(=O)Cc4ccc(Cl)c(Cl)c4)cc3)nn12 [Example 128]
8. COc1cc(C(=O)NCc2cccc3ccccc23)ccc1-c1nn2c(C)ncc2o1 [Example 20]

1: 500 to 1000 nM; 2: 500 to 1000 nM; 3: 500 to 1000 nM; 4: 100 to 500 nM; 5: 1000 to 2200 nM; 6: < 100 nM; 7: 500 to 1000 nM; 8: 1000 to 2200 nM

I'd like to know its IC50. The compound in question is Cc1ncc2oc(-c3ccc(NC(=O)Cc4cccc(C#N)c4)cc3)nn12 [Example 64]
500 to 1000 nM
